species on record: Homo sapiens; experiment: To identify inhibition of the IFN signalling (Jak-Stat) pathway via expression of an eGFP reporter gene under the control of an IFN-stimulated response element (ISRE) containing MxA promoter.; assay type: functional; parameters: scale not given: direction of the effect not stated beside the values; conditions: 30 µM
Label fulfilled when Percent Effect is at or above 10%; anything below gets not fulfilled.

Known results for molecules:
| molecule | label_value |
| --- | --- |
| O=C(Cn1cc(-c2ccccc2)ncc1=O)Nc1nnc[nH]1 | not fulfilled |
| O=C(Nc1ccccc1)C1=CC2(CCNCC2)c2ccccc21 | not fulfilled |
| CSCC(=O)N1C[C@H]2CC[C@@H]1CN(Cc1ccccc1)C2 | fulfilled |
| CCN1CC2(CCN(CCOCCO)CC2)CC(c2ccccc2)C1=O (centres undefined) | fulfilled |
| O=c1[nH]c(CCN2CCCC(Cn3cncn3)C2)nc2ccccc12 (centres undefined) | fulfilled |
| CC(C)(C)c1cn2nc(N3CCOC(Cn4cncn4)C3)sc2n1 (centres undefined) | fulfilled |
| Cc1cnn(CCC(=O)N2CCN(c3nc(C)cs3)CC2)c1 | not fulfilled |
| Cc1nc(C)n(CC2CCCN2Cc2nc(C3CC3)no2)n1 (centres undefined) | not fulfilled |

Next molecule, please.
Does the reported Percent Effect for "Cn1nc2c(cc1=O)CN(Cc1nc(-c3cccs3)no1)CC2" fall at or above the 10% mark? fulfilled
